# Lookup of reported SPOT peptide array binding signal intensity keyed by entry
- Subject Of Test: AgHse1
- Assay Name: SPOT peptide array binding signal intensity (averaged, normalized) (arbitrary units (background-subtracted, floor 0; scale differs between SH3 domains)); higher = stronger binding of the SH3 domain to the peptide
// print number alone

>  <Binder>
DLFKPLPEPPTELGR

>  <Data Value>
27

$$$$

Report SPOT peptide array binding signal intensity for "FLIKFTPKFPQSIDH" please.
1660

What measured SPOT peptide array binding signal intensity goes with "RPVPPPPPMRTTTEG" ?
144

I'd like to know its SPOT peptide array binding signal intensity. The binder in question is "SHRLWLYAAPKRPKT"
5
